# target of assay: T1, human CLDN18.2 (human)
# T1 construct: also called huCLDN18.2; hCLDN18.2
# protocol details: flow cytometry; % positive tumor cells divided by % positive healthy stomach cells
Ratio tumor/stomach (Mouse 1) reference
Just the number.

Example cases with answers are listed next.
{"binder": "hCl1f (antibody, human IgG1, kappa, V domains shown, Humanized) VH: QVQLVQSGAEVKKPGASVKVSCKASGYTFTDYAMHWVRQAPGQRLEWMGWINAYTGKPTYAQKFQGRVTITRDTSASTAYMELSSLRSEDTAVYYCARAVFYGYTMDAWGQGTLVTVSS VL: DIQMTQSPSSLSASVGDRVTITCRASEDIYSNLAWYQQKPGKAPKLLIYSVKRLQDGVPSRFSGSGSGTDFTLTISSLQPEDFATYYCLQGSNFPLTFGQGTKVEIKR", "Ratio tumor/stomach (Mouse 1)": 800}
{"binder": "cCl1-1 (antibody, V domains shown, Chimeric antibody from a rat hybridoma; not built in; also called chimeric cCl1-1 antibody) VH: QIQLVQSGPELKKPGESVKISCKASGYTFTDYAMHWVKQAPGKGLKWMGWINTYTGKPTYADDFKGRFVFSLEASASTANLQISNLKNEDTATYFCARAVFYGYTMDAWGQGTSVTVSS VL: DIQMTQSPASLSASLGETISIACRASEDIYSNLAWYQQKSGKSPQLLIFSVKRLQDGVPSRFSGSGSGTQYSLKISGMQPEDEGDYFCLQGSNFPLTFGSGTKLEIK", "Ratio tumor/stomach (Mouse 1)": 92.5}

Continue with the next binder.
Ask: Would you kindly share the measured Ratio tumor/stomach (Mouse 1) for hCl1b (antibody, human IgG1, kappa, V domains shown, Humanized) VH: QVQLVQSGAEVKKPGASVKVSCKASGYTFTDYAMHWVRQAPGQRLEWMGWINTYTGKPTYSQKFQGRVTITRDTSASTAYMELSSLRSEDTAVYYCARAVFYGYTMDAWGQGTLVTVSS VL: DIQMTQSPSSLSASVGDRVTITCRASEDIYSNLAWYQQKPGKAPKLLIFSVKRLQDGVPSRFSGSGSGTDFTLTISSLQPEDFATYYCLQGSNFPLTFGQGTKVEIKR ?
Reply: 43
